ASSAY SUMMARY: qHTS of pediatric cancer cell lines to identify multiple opportunities for drug repurposing: Primary screen for SJ-GBM2 cells (AID 1347091); further: potency means the concentration at half of the fitted maximal effect
TEST SETTINGS: SJ-GBM2 viability, CellTiter-Glo luminescence, 48 h; series mostly up to 46 µM
Records with an inconclusive call do not appear. Active and inactive are the calls of the source. The call rests on the fitted dose curve; in most records, active means well fitted cell-killing curve with a large enough effect; inconclusive means small, poorly fitted or top-dose-only effect; inactive means no such curve, though single readings can be large or run the other way.
ASSAY ENDPOINT: Potency

1. NS(=O)(=O)c1cccc2c1C(=O)c1cccc(O)c1C2=O: 0.59 µM (active)
2. C[N+]1(C)[C@@H]2CC(OC(=O)[C@H](CO)c3ccccc3)C[C@H]1[C@H]1O[C@@H]12 (stereo partly drawn): inactive
3. Cc1cccc(Nc2nc(-c3ccncc3)cs2)c1: 16.6 µM (active)
4. CON=C(C(=O)N[C@@H]1C(=O)N2C(C(=O)OCOC(=O)C(C)(C)C)=C(C=Cc3scnc3C)CS[C@H]12)c1csc(N)n1: inactive
5. O=C(O)Cc1cccc2ccccc12: inactive
6. CC[C@@]1(O)C[C@H](O[C@H]2C[C@H](N(C)C)[C@H](O[C@H]3C[C@H](O)[C@H](O[C@H]4CCC(=O)[C@H](C)O4)[C@H](C)O3)[C@H](C)O2)c2c(cc3c(c2O)C(=O)c2c(O)cccc2C3=O)[C@@H]1C(=O)OC: 0.372 µM (active)
7. C[C@]12CC[C@@H]3c4ccc(O)cc4C[C@@H](CCCCCCCCCS(=O)CCCC(F)(F)C(F)(F)F)[C@H]3[C@H]1CC[C@H]2O (stereo partly drawn): inactive
8. COCCOc1nc(-c2ccc(Cl)c(Cl)c2)n(-c2ccc(NC(=O)CCl)cc2)n1: 16.6 µM (active)

###

ASSAY SUMMARY: Quantitative High-Throughput drug screen in 47 multiple myeloma cell lines against the NCATS MIPE library collection: INA6_PLB cell viability assay (AID 1918965; further: nearly all actives have a fitted effect of over 55% in size)
TEST SETTINGS: INA6 myeloma viability, CellTiter-Glo ATP luminescence, 48 h; series mostly up to 45.8 µM
Description: PI: Beverly A. Mock Ph.D. Laboratory of Cancer Biology and Genetics, Center for Cancer Research, National Cancer Institute, National Institute of Health, Bethesda, Maryland […] 5; Detector; 425V; Luminescence; Viewlux PerkinElmer. […] 1. […] Briefly, the corresponding myeloma cell lines were screened in 1,536-well plates with 500 cells, 5-uL per well for inhibition of cell viability (assessed by measuring ATP levels with CellTiterGlo). […]
Inconclusive results are not listed. The source made the active and inactive calls. Calls come from the whole dose curve; as a rule, active = well fitted cell-killing curve with a large enough effect; inconclusive = small, poorly fitted or top-dose-only effect, or effect the other way; inactive = no such curve, though single readings can be large or run the other way.
Possible outcomes: active, inactive

1. O=c1ccn([C@@H]2O[C@H](CO)[C@H](O)[C@H]2O)c(=O)[nH]1: inactive
2. O=c1cc(CN2CCOCC2)occ1OCCCCCSc1ccnc2cc(C(F)(F)F)ccc12: active
3. COc1ccc(-c2cc(=O)c3c(O)cc(O)cc3o2)cc1O: active
4. CC=CC(=O)N(CC)c1ccccc1C: inactive
5. Nc1ncnc2c1nc(Cl)n2[C@@H]1O[C@H](CO)[C@@H](O)[C@@H]1O: active
6. c1cc(-c2sc(-c3ccncc3)c(-c3ccncc3)c2-c2ccncc2)ccn1: active
7. CN1[C@@H]2CCC[C@@H]1CC(NC(=O)c1nn(C)c3ccccc13)C2 (stereo not given in full): inactive
8. Cc1c(O)cccc1C(=O)N[C@@H](CSc1ccccc1)[C@H](O)CN1C[C@H]2CCCC[C@@H]2C[C@@H]1C(=O)NC(C)(C)C: active
9. COc1cccc2c1CCCC2CCCN1CCN(C2CCCCC2)CC1 (stereo not given): active
10. CC1(C)S[C@H]2[C@H](NC(=O)[C@@H](N)c3ccc(O)cc3)C(=O)N2[C@@H]1C(=O)O: active
